The measured values listed here are drawn from ChEMBL document CHEMBL1759834.

# System: Candida albicans
# test summary: Antifungal activity against Candida albicans after 24 hrs by twofold serial dilution method
# Type: functional
property name: -logMIC
Answers are plain numbers.

Worked examples, 3 molecules total:
# line notation, -logMIC
data = [
    ("C[C@@H]1/C(=N\\NC(=S)Nc2ccccc2)[C@@H](C)[C@H](c2ccc(Cl)cc2)O[C@@H]1c1ccc(Cl)cc1", 4.903),
    ("C[C@@H]1/C(=N\\NC(=S)Nc2ccccc2)[C@@H](C)[C@H](c2ccc(F)cc2)O[C@@H]1c1ccc(F)cc1", 4),
    ("COc1ccc([C@H]2O[C@@H](c3ccc(OC)cc3)[C@H](C)/C(=N/NC(=S)Nc3ccccc3)[C@H]2C)cc1", 5.204),
]

Batch request: -logMIC per item, same order as input.
1. C[C@@H]1/C(=N\NC(=S)Nc2ccccc2)[C@@H](C)[C@H](c2ccc(Br)cc2)O[C@@H]1c1ccc(Br)cc1
2. Cc1ccc([C@H]2O[C@@H](c3ccc(C)cc3)[C@H](C)/C(=N/NC(=S)Nc3ccccc3)[C@H]2C)cc1

Result:
5.204
5.204

###

# Test system: Escherichia coli
# test summary: Antibacterial activity against Escherichia coli ATCC 25835 after 24 hrs by twofold serial dilution method
# Format: functional
Record form. Attribute: -logMIC. Fill in for each entry.
Give bare numbers.

Worked examples, 5 compounds total:
# line notation, test target, -logMIC
rows = [
    ("C[C@@H]1/C(=N\\NC(=S)Nc2ccccc2)[C@@H](C)[C@H](c2ccc(Cl)cc2)O[C@@H]1c1ccc(Cl)cc1", "Escherichia coli", 4),
    ("C[C@@H]1/C(=N/NC(=S)Nc2ccccc2)C[C@@H](c2ccccc2)O[C@H]1c1ccccc1", "Escherichia coli", 4.301),
    ("C[C@@H]1/C(=N\\NC(=S)Nc2ccccc2)[C@@H](C)[C@H](c2ccc(Br)cc2)O[C@@H]1c1ccc(Br)cc1", "Escherichia coli", 4),
    ("COc1cccc([C@H]2O[C@@H](c3cccc(OC)c3)[C@H](C)/C(=N/NC(=S)Nc3ccccc3)[C@H]2C)c1", "Escherichia coli", 4.301),
    ("C[C@@H]1/C(=N\\NC(N)=S)[C@@H](C)[C@H](c2ccc(Cl)cc2)O[C@@H]1c1ccc(Cl)cc1", "Escherichia coli", 4.301),
]

Batch request: -logMIC per item, same order as input.
1. C[C@@H]1/C(=N\NC(=S)Nc2ccccc2)[C@@H](C)[C@H](c2ccccc2Cl)O[C@@H]1c1ccccc1Cl
2. C[C@@H]1/C(=N\NC(=S)Nc2ccccc2)[C@@H](C)[C@H](c2ccc(F)cc2)O[C@@H]1c1ccc(F)cc1
3. COc1ccc([C@H]2O[C@@H](c3ccc(OC)cc3)[C@H](C)/C(=N/NC(N)=S)[C@H]2C)cc1

Result:
4.602
4
4.602

###

# Test system: Klebsiella pneumoniae
# test summary: Antibacterial activity against Klebsiella pneumoniae ATCC 15490 after 24 hrs by twofold serial dilution method
# Type: functional
Record form. Attribute: -logMIC. Fill in for each entry.
Give bare numbers.

# line notation, test target, -logMIC
rows = [
    ("CC[C@@H]1/C(=N/NC(=S)Nc2ccccc2)C[C@@H](c2ccccc2)O[C@H]1c1ccccc1", "Klebsiella pneumoniae", 4),
    ("C[C@@H]1/C(=N\\NC(N)=S)[C@@H](C)[C@H](c2ccc(F)cc2)O[C@@H]1c1ccc(F)cc1", "Klebsiella pneumoniae", 4.301),
    ("C[C@@H]1/C(=N\\NC(N)=S)[C@@H](C)[C@H](c2ccc(Br)cc2)O[C@@H]1c1ccc(Br)cc1", "Klebsiella pneumoniae", 4.602),
]

Batch request: -logMIC per item, same order as input.
1. C[C@@H]1/C(=N\NC(=S)Nc2ccccc2)[C@@H](C)[C@H](c2ccc(F)cc2)O[C@@H]1c1ccc(F)cc1
2. C[C@@H]1/C(=N\NC(=S)Nc2ccccc2)[C@@H](C)[C@H](c2cccc(Cl)c2)O[C@@H]1c1cccc(Cl)c1

Result:
4.301
4.903

###

# System: Salmonella typhi
# test summary: Antibacterial activity against Salmonella typhi ATCC 24915 after 24 hrs by twofold serial dilution method
# Format: functional, Salmonella enterica subsp. enterica serovar Typhi
# cond: Salmonella enterica, ATCC 24915, 24 h
property name: MIC (µg/mL)
Answers are plain numbers, in µg/mL.

Worked examples, 5 molecules total:
# line notation, test target, unit abbrev, MIC
measured = [
    ("C[C@@H]1/C(=N\\NC(=S)Nc2ccccc2)[C@@H](C)[C@H](c2ccccc2Cl)O[C@@H]1c1ccccc1Cl", "Salmonella typhi", "µg/mL", 25),
    ("C[C@@H]1/C(=N\\NC(=S)Nc2ccccc2)[C@@H](C)[C@H](c2ccc(Br)cc2)O[C@@H]1c1ccc(Br)cc1", "Salmonella typhi", "µg/mL", 12.5),
    ("C[C@@H]1/C(=N/NC(=S)Nc2ccccc2)C[C@@H](c2ccccc2)O[C@H]1c1ccccc1", "Salmonella typhi", "µg/mL", 100),
    ("C[C@@H]1/C(=N\\NC(=S)Nc2ccccc2)[C@@H](C)[C@H](c2ccc(F)cc2)O[C@@H]1c1ccc(F)cc1", "Salmonella typhi", "µg/mL", 25),
    ("COc1ccc([C@H]2O[C@@H](c3ccc(OC)cc3)[C@H](C)/C(=N/NC(N)=S)[C@H]2C)cc1", "Salmonella typhi", "µg/mL", 50),
]

Batch request: MIC per item, same order as input.
1. C[C@@H]1/C(=N/NC(N)=S)C[C@@H](c2ccccc2)O[C@H]1c1ccccc1
2. CC[C@@H]1/C(=N/NC(N)=S)C[C@@H](c2ccccc2)O[C@H]1c1ccccc1
3. C[C@@H]1/C(=N\NC(=S)Nc2ccccc2)[C@@H](C)[C@H](c2ccc(Cl)cc2)O[C@@H]1c1ccc(Cl)cc1
4. CC[C@@H]1/C(=N/NC(=S)Nc2ccccc2)C[C@@H](c2ccccc2)O[C@H]1c1ccccc1

Result:
50
50
25
50

Batch request: MIC per item, same order as input.
1. COc1cccc([C@H]2O[C@@H](c3cccc(OC)c3)[C@H](C)/C(=N/NC(=S)Nc3ccccc3)[C@H]2C)c1
2. C[C@@H]1/C(=N\NC(N)=S)[C@@H](C)[C@H](c2ccc(Br)cc2)O[C@@H]1c1ccc(Br)cc1
3. C[C@@H]1/C(=N\NC(N)=S)[C@@H](C)[C@H](c2ccc(Cl)cc2)O[C@@H]1c1ccc(Cl)cc1

Result:
1: 50; 2: 25; 3: 25
